Data provenance: patent US12037395

In this section we review reported koff values for a set of binders.
biological target: T1, cynomolgus monkey PD-1-his protein (Acro biosystems, #PD-1-C5223) (cynomolgus monkey, UniProt B0LAJ3 25-170); assay: SPR (Biacore T200), antibody captured, antigen flowed
T1 construct: Bought protein; also called Cynomolgus PD-1; Cynomolgus PD1
T1 sequence (B0LAJ3 entry or part of it limits assumed): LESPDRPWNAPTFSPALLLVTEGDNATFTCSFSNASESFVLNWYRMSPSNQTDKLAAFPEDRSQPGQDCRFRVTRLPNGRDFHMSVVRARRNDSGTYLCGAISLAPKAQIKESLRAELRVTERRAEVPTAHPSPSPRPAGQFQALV
Provide only the numeric value, understood in s⁻¹.

Examples with their reported koff follow.
[[record]]
binder = "mouse anti-PD-1 monoclonal antibody C1C5 (antibody, mouse IgG1, kappa, V domains shown, Purified from hybridoma; Constant regions tied only generically to 'mouse antibodies') VH: QIQLVQSGPELKKPGETVKISCKASGYTFTNYGINWVKQAPGKGLKWMGWINTYSGEPTYSDDFKGRFAFSLETSASTAYLQINNLKNEDTSTYFCVRQGDFDYEDAMDYWGQGTSVTVSS VL: DVLMTQSPLSLPVSLGDQASISCRSSQSIVHSNGHIYLEWYLQKPGQSPKLLIYKVSKRFSGVPDRFSGSGSGTDFTLKISRVEAEDLGVYYCFQGSHGTFGGGTKLEIKR"
recorded_number = 0.0047

[[record]]
binder = "mouse anti-PD-1 monoclonal antibody 2G2 (antibody, mouse IgG1, kappa, V domains shown, Purified from hybridoma; Constant regions tied only generically to 'mouse antibodies'; also called Clone 2G2) VH: EVQLVESGGDLVKPGGSLKLSCTASGFTFSYYGMSWVRQTPDKRLEWVATISSGSSFTYSPDSVKGRFTISRDNAKNTLYLQMNSLKSEDTAIYYCTRREGIYDASWDYSMDYWGQGTSVTVSS VL: DVLMTQTPLSLPVSLGDQASISCRSSQSIIRSNGNTYLEWYLQKPGQSPKLLIYKVSNRFSGVPDRFSGSGSGTDFTLKISRVEADDLGLYYCFQGSHVPWTFGGGTKLEIKR"
recorded_number = 0.00183

[[record]]
binder = "mouse anti-PD-1 monoclonal antibody D1F2 (antibody, mouse IgG1, kappa, V domains shown, Purified from hybridoma; Constant regions tied only generically to 'mouse antibodies') VH: EVMLVESGGGLVKPGGSLKLSCAASGFTFSSYTMSWVRQTPEKRLEWVATISGGGSNIYYPDSVEGRFTVSRDNARNTLYLHMSSLRSEDTALYYCVLNYAYAMDYWGQGTSVTVSS VL: DIQMTQTTSSLSASLGDRVTISCRASQDISNFLNWYQQKPDGTVKLLIYYTSRLQSGVPSRFSGTGSGTDYSLTISNLEQEDLATYFCQQGSSLPWTFGGGTKLEIKR"
recorded_number = 0.00632

[[record]]
binder = "mouse anti-PD-1 monoclonal antibody C1F5 (antibody, mouse IgG1, kappa, V domains shown, Purified from hybridoma; Constant regions tied only generically to 'mouse antibodies') VH: EVQLVESGGGLVKPGGSLKLSCAASGFAFSSYDMSWVRQTPEKRLEWVAYITGGGSSSFYPDTVKGRFTISRDNSKNTLYLQMTSLRSEDTAMYYCASPYLSYFDYWGQGTTLTVSS VL: DIVLTQSPATLSVTPGDSVSLSCRASQSISNNLHWYQQKSHESPRLLIKYGSQSMSGIPSRFSGSGSGTDFTLVINSVETEDFGMYFCQQSNSWPLTFGAGTKLELKR"
recorded_number = 0.00249

[[record]]
binder = "mouse anti-PD-1 monoclonal antibody C1F4 (antibody, mouse IgG1, kappa, V domains shown, Purified from hybridoma; Constant regions tied only generically to 'mouse antibodies') VH: QVQLQQSGAELVRPGVSVKISCKGSGYKFTDYAMHWVRQSHAKSLEWIGIISTYSGDVSFNQNFKGKATMTVDKSSSTAYMELARLTSEDSAIYYCSRLGITAGFAYWGQGTLVTVSA VL: DIVMTQSQKFMSTSVGDRVTITCKASQNVRTAVAWYQQKPGQSPKALIYLASNRHTGVPDRFTGSGSGTDFTLTISNVQSKDLADYFCLQHWNYPYTFGGGTKLEIKR"
recorded_number = 0.00521


Enquiry: Given the binder mouse anti-PD-1 monoclonal antibody C1A1 (antibody, mouse IgG1, kappa, V domains shown, Purified from hybridoma; Constant regions tied only generically to 'mouse antibodies') VH: QVTLKESGPGILKPSQTLSLTCSFSGFSLSTSGMGVGWIRQPSGKGLEWLAHIWWDDDKFYNPSLKSQLTISKDTSRNQVFLKITSVDTADTATYYCARTGGFITTGYWYFDVWGAGTTVTVSS VL: DIQMTQTTSSLSASLGDRVTISCRASQDISNYLIWYQQKTDGTLKLLIYYTSRLHSGVPSRFSGSGSGTDYSLTISNLEQEDIATYFCQQHKTLPWTFGGGTKLEIKR , write its reported koff.
Return: 0.00331

Enquiry: Given the binder mouse anti-PD-1 monoclonal antibody C1E2 (antibody, mouse IgG1, kappa, V domains shown, Purified from hybridoma; Constant regions tied only generically to 'mouse antibodies') VH: QVQLQQSGAELVRPGTSVKISCKASGYTFTNYWLGWVKQRPGHGLEWIGDIYPGGGYTNYNENFKGKATLTADTSSSTAYMQLSSLTSEDSAVFFCARGYGTNYWYFDVWGAGTTVTVSS VL: SIVMTQTPKFLLVSAGDRVTITCKASQSVSNDVAWYQQKPGQSPKLLIYYAFHRYTGVPDRFTGSGYGTDFTFTISTVQAEDLAVYFCQQDYSSPYTFGGGTKLEIKR , write its reported koff.
Return: 0.00298

Enquiry: Given the binder mouse anti-PD-1 monoclonal antibody D1A1 (antibody, mouse IgG1, kappa, V domains shown, Purified from hybridoma; Constant regions tied only generically to 'mouse antibodies') VH: EVMLVESGGGLVKPGGSLKLSCAASGFTFSNYAMSWVRQTPEKRLEWVATISGGGGNIYYPDSVKGRFTISRDNARNTLYLQMSSLRSEDTALYYCASPYANYVWYLDVWGAGTTVTVSS VL: DIQMTQTTSSLSASLGDRVTISCRASQDISNYLNWYQQKPDGTVKLLIYYTSRLHSGVPSRFSGSGSGTDFSLTISNLEEEDIATYFCQQSNALPWTFGGGTKLEIKR , write its reported koff.
Return: 0.00236
